Readings of Human GLP1R cAMP EC50, HEK293T for the listed binders
# targetOfAssay: full-length human GLP-1R with an N-terminal FLAG tag, overexpressed on HEK-293T cells (human, UniProt P43220 24-463)
# assayOverview: cell-based or functional assay
Starred links: 1 amine or outer side, 2 acyl side, 3 side chain; linkers in the order of their positions; H or OH if unused. Non-standard residues stand in square brackets, D forms with d. Groups on a side chain read outwards from the residue. No end group written: not given here. *: point of attachment. C18 diacid = O=C(O)CCCCCCCCCCCCCCCCC(=O)*; γGlu = O=C(O)[C@H](CCC(=O)[*:2])N[*:1]; NMeY = CN[C@@H](Cc1ccc(O)cc1)C(=O)O; AEEA = NCCOCCOCC(=O)O; Aib = CC(C)(N)C(=O)O

binder	unitsOfMeasure	Human GLP1R cAMP EC50, HEK293T
YXEGTFISDYSIAXDRIAQRNFVEWLLAQSPG (N-terminal Me (Me-Tyr 1); Aib at 2; Km at 14 = Lys(G5-C18DA); C-terminus OH) [Compound No. 180]	nM	5.75
[NMeY][Aib]EGTFISDYSI[Aib]LDRAAQ[Aib]K([AEEA-AEEA-γGlu-γGlu-C18 diacid])FVNWLLAQRG-OH [Compound No. 214]	nM	28.8
Y[Aib]EGTFISDYSIAK([AEEA-AEEA-γGlu-C18 diacid])DKIHQQDFVNWLLAQKGKKNDWKHNITQ-OH [Compound No. 187]	nM	562
